Assignment: determine reported IC50 for the given compounds.
biological target: Fibroblast growth factor receptor 2 (Homo sapiens, UniProt P21802); assay: FGFR2 Enzyme Activity Assay
Sequence (P21802 whole entry): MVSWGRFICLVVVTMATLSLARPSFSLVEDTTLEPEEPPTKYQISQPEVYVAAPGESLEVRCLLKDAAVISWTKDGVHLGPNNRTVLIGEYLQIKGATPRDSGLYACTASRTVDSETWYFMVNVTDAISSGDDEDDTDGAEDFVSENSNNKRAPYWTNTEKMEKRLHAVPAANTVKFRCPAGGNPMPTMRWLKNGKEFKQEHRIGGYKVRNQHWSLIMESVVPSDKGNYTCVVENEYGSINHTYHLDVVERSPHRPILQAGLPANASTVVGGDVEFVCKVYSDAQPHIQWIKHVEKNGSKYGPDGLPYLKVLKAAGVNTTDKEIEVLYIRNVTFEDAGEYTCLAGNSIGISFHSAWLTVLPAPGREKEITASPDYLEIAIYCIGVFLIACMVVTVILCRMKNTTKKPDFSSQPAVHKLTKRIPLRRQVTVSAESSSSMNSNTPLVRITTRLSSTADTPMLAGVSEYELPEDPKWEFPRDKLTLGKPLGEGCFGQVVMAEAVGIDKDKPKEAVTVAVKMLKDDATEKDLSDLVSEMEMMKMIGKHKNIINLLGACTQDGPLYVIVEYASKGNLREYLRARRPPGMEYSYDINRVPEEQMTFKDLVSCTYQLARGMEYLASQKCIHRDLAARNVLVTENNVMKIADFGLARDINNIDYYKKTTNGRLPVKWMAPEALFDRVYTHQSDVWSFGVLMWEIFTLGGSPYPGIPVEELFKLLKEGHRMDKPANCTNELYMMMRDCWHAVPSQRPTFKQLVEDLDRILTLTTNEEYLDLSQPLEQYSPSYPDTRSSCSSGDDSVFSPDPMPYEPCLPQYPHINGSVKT
Give the number first and the unit second.

Reference set, count: 4
COc1cc(-c2cnn(C3CN(C(=O)C4CN(C(=O)/C=C/CN(C)C)C4)C3)c2)cn2ncc(C#N)c12 [US12180207, Example 150]    6 nM
C=CC(=O)N[C@@H]1CC[C@@H](C(=O)N2CCC(n3cc(-c4cc(OC)c5c(C#N)cnn5c4)cn3)CC2)C1 [US12180207, Example 34]    5 nM
COc1cc(-c2cnn(C3CCN(C(=O)/C=C/CN(C)C)CC3)c2)cn2ncc(C#N)c12 [US12180207, Example 144]    5 nM
C=CS(=O)(=O)N[C@H]1CC[C@H](C(=O)N2CCC(n3cc(-c4cc(OC)c5c(C#N)cnn5c4)cn3)CC2)CC1 [US12180207, Example 187]    5 nM

For every item below, please supply its IC50.
1. C=CS(=O)(=O)Nc1ccc(C(=O)N2CCC(n3cc(-c4cc(OC)c5c(C#N)cnn5c4)cn3)CC2)cc1 [US12180207, Example 196]
2. COc1cc(-c2cnn(C3CCN(C(=O)C4CN(C(=O)/C=C/CF)C4)CC3)c2)cn2ncc(C#N)c12 [US12180207, Example 142]
3. COc1cc(-c2cnn(C3CN(CC4CN(C(=O)/C=C/CN(C)C)C4)C3)c2)cn2ncc(C#N)c12 [US12180207, Example 148]

[out]
["8 nM", "3 nM", "6 nM"]

For every item below, please supply its IC50.
1. C=CC(=O)N[C@H]1CC[C@H](C(=O)N2CC(n3cc(-c4cc(OC)c5c(C#N)cnn5c4)cn3)C2)C1 [US12180207, Example 77]
2. C=C(F)C(=O)N1CC(C(=O)N2CCC(n3cc(-c4cc(OC)c5c(C#N)cnn5c4)cn3)CC2)C1 [US12180207, Example 140]
3. C=CC(=O)N[C@@H]1CC[C@H](C(=O)N2CCC(n3cc(-c4cc(OC)c5c(C#N)cnn5c4)cn3)CC2)C1 [US12180207, Example 32]

[out]
1: 12 nM; 2: 2 nM; 3: 4 nM
